Cited source for all entries: patent US8536354B2

Target: wild-type Aedes aegypti EcR (AaEcR-DEF) (Aedes aegypti, UniProt P49880)
Sequence (P49880 405-776 limits assumed): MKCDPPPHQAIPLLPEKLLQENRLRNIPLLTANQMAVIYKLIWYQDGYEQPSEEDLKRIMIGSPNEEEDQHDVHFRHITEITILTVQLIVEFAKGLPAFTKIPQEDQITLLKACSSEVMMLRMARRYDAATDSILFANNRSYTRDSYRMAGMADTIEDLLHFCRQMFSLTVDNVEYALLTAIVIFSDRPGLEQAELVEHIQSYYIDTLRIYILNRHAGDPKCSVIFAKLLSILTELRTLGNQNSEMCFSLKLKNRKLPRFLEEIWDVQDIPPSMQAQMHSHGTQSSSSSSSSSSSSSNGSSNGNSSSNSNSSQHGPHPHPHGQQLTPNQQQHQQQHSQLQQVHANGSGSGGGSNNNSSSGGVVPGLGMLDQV
Assay: Two-hybrid gene switch assay, AaEcR-DEF in NIH3T3 cells
Conditions: AaEcR; max fold induction at any concentration relative to PoA
RECORDED METRIC: rel max FI (PoA), AA

INSERT INTO results (compound, system_tested, observed_result) VALUES
  ('CO[C@H](CCC(C)(C)O)[C@](C)(O)C1CC[C@@]2(O)C3=CC(=O)C4C[C@@H](O)[C@@H](O)CC4(C)C3CCC12C (stereo partly drawn) [20E-22-methyl ether]', 'wild-type Aedes aegypti EcR (AaEcR-DEF) (Aedes aegypti, UniProt P49880)', 0.86),
  ('CO[C@H]1C[C@@]2(C)[C@@H](C[C@H]1O)C(=O)C=C1[C@@H]2CC[C@]2(C)[C@@H]([C@@](C)(O)[C@@H](CCC(C)(C)O)OC)CC[C@@]12O [20E-2,22-dimethyl ether]', 'wild-type Aedes aegypti EcR (AaEcR-DEF) (Aedes aegypti, UniProt P49880)', 0.80),
  ('CO[C@@H]1C[C@H]2C(=O)C=C3[C@H](CC[C@]4(C)[C@@H]([C@@](C)(O)[C@@H](CCC(C)(C)O)OC)CC[C@@]34O)[C@@]2(C)C[C@@H]1O [20E-3,22-dimethyl ether]', 'wild-type Aedes aegypti EcR (AaEcR-DEF) (Aedes aegypti, UniProt P49880)', 0.79),
  ('CO[C@H]1C[C@@]2(C)[C@@H](C[C@H]1O)C(=O)C=C1[C@@H]2CC[C@]2(C)[C@@H]([C@@](C)(O)[C@H](O)CCC(C)(C)O)CC[C@@]12O [20E-2-methyl ether]', 'wild-type Aedes aegypti EcR (AaEcR-DEF) (Aedes aegypti, UniProt P49880)', 0.30),
  ('CO[C@@H]1C[C@H]2C(=O)C=C3[C@H](CC[C@]4(C)[C@@H]([C@@](C)(O)[C@H](O)CCC(C)(C)O)CC[C@@]34O)[C@@]2(C)C[C@@H]1O [20E-3-methyl ether]', 'wild-type Aedes aegypti EcR (AaEcR-DEF) (Aedes aegypti, UniProt P49880)', 0.60),
  ('COC1C[C@H]2C(=O)C=C3[C@H](CC[C@]4(C)[C@@H]([C@@](C)(O)C(CCC(C)(C)O)OC)CC[C@@]34OC)[C@@]2(C)CC1OC (stereo partly drawn) [20E-2,3,14,22-tetramethyl ether]', 'wild-type Aedes aegypti EcR (AaEcR-DEF) (Aedes aegypti, UniProt P49880)', 0.02);
